# System: Trichosporon cutaneum IFO 1189
quantity measured: MIC (µg/mL)

molecule: C=C1C2CC3C(C(C)C)C(OC(=O)Nc4ccc(F)cc4)CC3(C)CC2C(C)=CCC2C(C)OC(=O)C(O)C12O (centres unmarked)
uom: µg/mL
MIC: 3.13

[A] C=C1C2CC3C(C(C)C)C(OC(=O)NCC)CC3(C)CC2C(C)=CCC2C(C)OC(=O)C(O)C12O (centres unmarked)
[B] C=C1C2CC3C(C(C)C)C(OC(=O)NC4CCCCO4)CC3(C)CC2C(C)=CCC2C(C)OC(=O)C(O)C12O (centres unmarked)
In: Compare MIC: is it lower for A or for B ? Mark your answer with the label of the selected entry.
Out: A

* * *

# System: Trichosporon cutaneum IFO 1189
# test: Antifungal activity, minimum growth inhibition concentration (MIC), agar plate dilution method
# Format: cell-based
# condition details: Cutaneotrichosporon cutaneum, IFO1189, 48 h; agar plate dilution method, Trichosporon cutaneum IFO 1189, culture at 37° C. for 2 days, yeast-nitrogen base with 1% glucose
quantity measured: MIC (mg/L)

compound: C=C1C2CC3C(C(C)C)C(OC(=O)Nc4ccccc4)CC3(C)CC2C(C)=CCC2C(C)OC(=O)C(O)C12O (stereo not drawn)
uom: mg/L
MIC: 3.13

compound: C=C1C2CC3C(C(C)C)C(OC(=O)CC(C)C)CC3(C)CC2C(C)=CCC2C(C)OC(=O)C(O)C12O (stereo not drawn)
uom: mg/L
MIC: 6.25

compound: C=C1C2CC3C(C(C)C)C(OS(=O)(=O)/C=C/c4ccccc4)CC3(C)CC2C(C)=CCC2C(C)OC(=O)C(O)C12O (stereo not drawn)
uom: mg/L
MIC: 12.5

compound: C=C1C2CC3C(C(C)C)C(NC(=O)Cc4ccc(Cl)cc4)CC3(C)CC2C(C)=CCC2C(C)OC(=O)C(O)C12O (stereo not drawn)
uom: mg/L
MIC: 6.25

compound: C=C1C2CC3C(C(C)C)C(NC(=O)CC(C)(O)CC(C)CC)CC3(C)CC2C(C)=CCC2C(C)OC(=O)C(O)C12O (stereo not drawn)
uom: mg/L
MIC: 12.5

[1] C=C1C2CC3C(C(C)C)C(NC(=O)Cc4csc5ccccc45)CC3(C)CC2C(C)=CCC2C(C)OC(=O)C(O)C12O (stereo not drawn)
[2] C=C1C2CC3C(C(C)C)C(OC(=O)c4ccc(F)cc4)CC3(C)CC2C(C)=CCC2C(C)OC(=O)C(O)C12O (stereo not drawn)
[3] C=C1C2CC3C(C(C)C)C(OC(=O)c4ccc(Cl)nc4)CC3(C)CC2C(C)=CCC2C(C)OC(=O)C(O)C12O (stereo not drawn)
In: # rank_down: sort by MIC, max first Sort and list the labels as requested.
Out: 2, 1, 3
(2: 12.5 mg/L, 1: 6.25 mg/L, 3: 3.13 mg/L)

* * *

Here's what we have: MIC numbers for Trichosporon cutaneum IFO 1189.
quantity measured: MIC (µg/mL)

In the examples that follow, each entry is paired with its recorded MIC.
compound: C=C1C2CC3C(C(C)C)C(OC(=O)C(O)CCCC)CC3(C)CC2C(C)=CCC2C(C)OC(=O)C(O)C12O (stereo not shown)
quantity measured: MIC
uom: µg/mL
data value: 12.5
--
compound: C=C1C2CC3C(C(C)C)C(OC(=O)NCc4ccccc4)CC3(C)CC2C(C)=CCC2C(C)OC(=O)C(O)C12O (stereo not shown)
quantity measured: MIC
uom: µg/mL
data value: 6.25

[A] C=C1C2CC3C(C(C)C)C(OC(=O)CCC)CC3(C)CC2C(C)=CCC2C(C)OC(=O)C(O)C12O (stereo not shown)
[B] C=C1C2CC3C(C(C)C)C(OC(=O)NC4CCCCC4)CC3(C)CC2C(C)=CCC2C(C)OC(=O)C(O)C12O (stereo not shown)
In: // max by MIC over [ A , B ] Mark your answer with the label of the selected entry.
Out: B
(B: 12.5 µg/mL, A: 6.25 µg/mL)

Source of measurements: patent US6303797A
